These data points were gathered from BindingDB's records for doi:10.1111/cbdd.12579.

A set of compounds tested on Carboxylic ester hydrolase (Equus caballus, UniProt Q9N1N9), with measured pIC50:
Give only the number. pIC50 is defined as minus log10 of concentration in molar units.

Before answering, review these 3 worked examples.
| compound | pIC50 |
| --- | --- |
| Cc1cccc(-c2cnc3cccnc3n2)c1 | 6.23 |
| CN(C)C(=O)Oc1cccc([N+](C)(C)C)c1 | 4.30 |
| Cc1ccc(-c2cnc3cccnc3n2)cc1 | 5.19 |

Lookup: pIC50 / Carboxylic ester hydrolase (Equus caballus, UniProt Q9N1N9) / "O=[N+]([O-])c1cccc(-c2cnc3cccnc3n2)c1"
5.72

Lookup: pIC50 / Carboxylic ester hydrolase (Equus caballus, UniProt Q9N1N9) / "Clc1ccc(-c2cnc3cccnc3n2)cc1"
5.58

Lookup: pIC50 / Carboxylic ester hydrolase (Equus caballus, UniProt Q9N1N9) / "O=[N+]([O-])c1ccccc1-c1cnc2cccnc2n1"
4.65

Lookup: pIC50 / Carboxylic ester hydrolase (Equus caballus, UniProt Q9N1N9) / "Clc1cccc(-c2cnc3cccnc3n2)c1"
4.92

Lookup: pIC50 / Carboxylic ester hydrolase (Equus caballus, UniProt Q9N1N9) / "c1cnc2nc3c(nc2c1)CCCC3"
4.96

Lookup: pIC50 / Carboxylic ester hydrolase (Equus caballus, UniProt Q9N1N9) / "Fc1ccc(-c2cnc3cccnc3n2)cc1"
4.95

Lookup: pIC50 / Carboxylic ester hydrolase (Equus caballus, UniProt Q9N1N9) / "Cc1ccccc1-c1cnc2cccnc2n1"
4.67

Lookup: pIC50 / Carboxylic ester hydrolase (Equus caballus, UniProt Q9N1N9) / "O=[N+]([O-])c1ccc(-c2cnc3cccnc3n2)cc1"
4.68

Lookup: pIC50 / Carboxylic ester hydrolase (Equus caballus, UniProt Q9N1N9) / c1ccc(-c2cnc3cccnc3n2)cc1 [3-Phenylpyrido[2,3-b]pyrazine (6a)]
4.45
